experimentalTarget: human CGRP receptor (human, UniProt Q16602 23-461; O60894 27-148)
Sequence (Q16602 23-461, chain 1 of 2): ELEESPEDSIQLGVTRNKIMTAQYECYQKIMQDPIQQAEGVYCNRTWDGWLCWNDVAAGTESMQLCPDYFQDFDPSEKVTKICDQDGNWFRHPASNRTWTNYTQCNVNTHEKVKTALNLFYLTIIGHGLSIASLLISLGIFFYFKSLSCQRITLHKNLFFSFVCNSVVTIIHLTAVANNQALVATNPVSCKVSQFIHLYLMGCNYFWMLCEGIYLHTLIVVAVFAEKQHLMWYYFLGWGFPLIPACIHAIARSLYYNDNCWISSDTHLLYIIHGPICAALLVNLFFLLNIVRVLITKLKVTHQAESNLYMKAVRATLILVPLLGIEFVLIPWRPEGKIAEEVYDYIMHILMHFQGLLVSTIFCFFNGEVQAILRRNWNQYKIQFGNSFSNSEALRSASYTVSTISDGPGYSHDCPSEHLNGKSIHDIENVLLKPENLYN
Sequence (O60894 27-148, chain 2 of 2): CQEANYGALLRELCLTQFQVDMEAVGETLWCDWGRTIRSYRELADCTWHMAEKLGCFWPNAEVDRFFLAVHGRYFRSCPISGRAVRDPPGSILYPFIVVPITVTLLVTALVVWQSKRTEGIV
assayNotes: cell-based or functional assay
Attribute: % Relative Potency by Cell-Based Bioassay
measurementName: % Relative Potency by Cell-Based Bioassay (%)

>  <binder>
Erenumab HIC-HPLC Post-peak Fraction F7 (antibody, human IgG2, lambda, V domains shown, Asp105 isomerization (isoAsp) 2.4%; Asp105 succinimide 0.1%; Asn102 deamidation ND; Leu195/Ser196 cleavage 1.1%) VH: QVQLVESGGGVVQPGRSLRLSCAASGFTFSSFGMHWVRQAPGKGLEWVAVISFDGSIKYSVDSVKGRFTISRDNSKNTLFLQMNSLRAEDTAVYYCARDRLNYYDSSGYYHYKYYGMAVWGQGTTVTVSS VL: QSVLTQPPSVSAAPGQKVTISCSGSSSNIGNNYVSWYQQLPGTAPKLLIYDNNKRPSGIPDRFSGSKSGTSTTLGITGLQTGDEADYYCGTWDSRLSAVVFGGGTKLTVLG

>  <resultNumber>
68

$$$$
>  <binder>
Erenumab HIC-HPLC Pre-peak Fraction F3 (antibody, human IgG2, lambda, V domains shown, Asp105 isomerization (isoAsp) 19.6%; Asp105 succinimide 12.6%; Asn102 deamidation 1.2%; Leu195/Ser196 cleavage 0.5%) VH: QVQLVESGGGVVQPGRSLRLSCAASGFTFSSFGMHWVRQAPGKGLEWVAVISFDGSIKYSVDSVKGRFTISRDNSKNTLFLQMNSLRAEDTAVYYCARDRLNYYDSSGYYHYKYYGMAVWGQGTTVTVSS VL: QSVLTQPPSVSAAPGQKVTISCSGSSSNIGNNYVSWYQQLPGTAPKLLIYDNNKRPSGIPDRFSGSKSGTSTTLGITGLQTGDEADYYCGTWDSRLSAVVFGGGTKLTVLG

>  <resultNumber>
35

$$$$
